target or system: human TRPA1 channel (Homo sapiens (Human))
Sequence (O75762 whole entry): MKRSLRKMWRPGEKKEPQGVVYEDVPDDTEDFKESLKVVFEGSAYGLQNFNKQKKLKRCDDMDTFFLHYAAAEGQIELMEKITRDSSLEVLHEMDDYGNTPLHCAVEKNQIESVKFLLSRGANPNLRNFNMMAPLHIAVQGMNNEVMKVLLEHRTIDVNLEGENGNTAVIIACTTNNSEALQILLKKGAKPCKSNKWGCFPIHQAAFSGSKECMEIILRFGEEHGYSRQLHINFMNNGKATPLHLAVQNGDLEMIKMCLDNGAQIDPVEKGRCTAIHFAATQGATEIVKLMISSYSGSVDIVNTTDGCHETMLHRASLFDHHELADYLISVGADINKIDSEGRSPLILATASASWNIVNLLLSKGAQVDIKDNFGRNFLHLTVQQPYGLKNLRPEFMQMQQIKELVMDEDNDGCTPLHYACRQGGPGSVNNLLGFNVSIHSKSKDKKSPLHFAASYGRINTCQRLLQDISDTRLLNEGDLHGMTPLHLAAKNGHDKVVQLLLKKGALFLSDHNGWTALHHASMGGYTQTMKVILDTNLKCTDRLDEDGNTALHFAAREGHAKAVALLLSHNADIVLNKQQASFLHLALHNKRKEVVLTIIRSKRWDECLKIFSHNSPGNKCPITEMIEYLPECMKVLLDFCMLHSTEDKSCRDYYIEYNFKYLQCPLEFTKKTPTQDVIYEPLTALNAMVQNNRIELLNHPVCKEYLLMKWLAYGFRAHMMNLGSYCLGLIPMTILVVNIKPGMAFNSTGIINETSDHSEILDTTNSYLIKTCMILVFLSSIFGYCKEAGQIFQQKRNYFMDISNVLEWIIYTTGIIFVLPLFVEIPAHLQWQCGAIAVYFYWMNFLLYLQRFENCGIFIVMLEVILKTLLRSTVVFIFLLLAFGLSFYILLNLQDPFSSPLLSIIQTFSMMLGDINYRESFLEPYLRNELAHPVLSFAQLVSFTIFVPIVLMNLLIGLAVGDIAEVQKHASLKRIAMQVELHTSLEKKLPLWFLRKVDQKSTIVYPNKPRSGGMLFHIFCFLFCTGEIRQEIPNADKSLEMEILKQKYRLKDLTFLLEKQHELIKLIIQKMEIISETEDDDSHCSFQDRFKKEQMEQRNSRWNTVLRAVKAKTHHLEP
procedure details: hTRPA1 CHO Ca2+ FLIPR Tetra assay: block of cinnamaldehyde induced calcium influx
Format: cell-based
test conditions: read-out: hTRPA1 IC50 10 min; CHO cells expressing TRPA1; 10 minutes incubation with compound before cinnamaldehyde (about EC80); Hill coefficient fixed to 1.5
parameter measured: IC50 (nM)

Worked cases, IC50 given:
Cn1cnc2ncn(Cc3nc([C@@H]4CO[C@@](C)(c5ccc(Cl)cc5)C4)no3)c(=O)c21	3710
O=c1c2ccnnc2ncn1Cc1nc([C@@H]2CO[C@@H](c3ccc(F)cc3)C2)no1	71.7

(A) Cn1cnc2ncn(Cc3nc([C@@H]4CO[C@@H](c5ccc(-c6ccccc6)cc5)C4)no3)c(=O)c21
(B) Nc1nn2c(C(F)(F)F)ncc2c(=O)n1Cc1nc([C@@H]2CO[C@@H](c3ccc(Cl)cc3)C2)no1
Param metric = IC50; output whichever of A , B has the minimum value. Refer to your chosen entry by its label in the reply.
B
(B: 4.48 nM, A: 623 nM)
